- study system: F508delCFTR (Homo sapiens, UniProt P13569, DEL508-508)
- Construct: expressed in transfected cells; host or cells: CFBE41o- human lung derived epithelial cells (CFBE41o-F508delCFTR-HRP), doxycycline-inducible
- Sequence (P13569 with tags, fused parts or gaps DEL508-508): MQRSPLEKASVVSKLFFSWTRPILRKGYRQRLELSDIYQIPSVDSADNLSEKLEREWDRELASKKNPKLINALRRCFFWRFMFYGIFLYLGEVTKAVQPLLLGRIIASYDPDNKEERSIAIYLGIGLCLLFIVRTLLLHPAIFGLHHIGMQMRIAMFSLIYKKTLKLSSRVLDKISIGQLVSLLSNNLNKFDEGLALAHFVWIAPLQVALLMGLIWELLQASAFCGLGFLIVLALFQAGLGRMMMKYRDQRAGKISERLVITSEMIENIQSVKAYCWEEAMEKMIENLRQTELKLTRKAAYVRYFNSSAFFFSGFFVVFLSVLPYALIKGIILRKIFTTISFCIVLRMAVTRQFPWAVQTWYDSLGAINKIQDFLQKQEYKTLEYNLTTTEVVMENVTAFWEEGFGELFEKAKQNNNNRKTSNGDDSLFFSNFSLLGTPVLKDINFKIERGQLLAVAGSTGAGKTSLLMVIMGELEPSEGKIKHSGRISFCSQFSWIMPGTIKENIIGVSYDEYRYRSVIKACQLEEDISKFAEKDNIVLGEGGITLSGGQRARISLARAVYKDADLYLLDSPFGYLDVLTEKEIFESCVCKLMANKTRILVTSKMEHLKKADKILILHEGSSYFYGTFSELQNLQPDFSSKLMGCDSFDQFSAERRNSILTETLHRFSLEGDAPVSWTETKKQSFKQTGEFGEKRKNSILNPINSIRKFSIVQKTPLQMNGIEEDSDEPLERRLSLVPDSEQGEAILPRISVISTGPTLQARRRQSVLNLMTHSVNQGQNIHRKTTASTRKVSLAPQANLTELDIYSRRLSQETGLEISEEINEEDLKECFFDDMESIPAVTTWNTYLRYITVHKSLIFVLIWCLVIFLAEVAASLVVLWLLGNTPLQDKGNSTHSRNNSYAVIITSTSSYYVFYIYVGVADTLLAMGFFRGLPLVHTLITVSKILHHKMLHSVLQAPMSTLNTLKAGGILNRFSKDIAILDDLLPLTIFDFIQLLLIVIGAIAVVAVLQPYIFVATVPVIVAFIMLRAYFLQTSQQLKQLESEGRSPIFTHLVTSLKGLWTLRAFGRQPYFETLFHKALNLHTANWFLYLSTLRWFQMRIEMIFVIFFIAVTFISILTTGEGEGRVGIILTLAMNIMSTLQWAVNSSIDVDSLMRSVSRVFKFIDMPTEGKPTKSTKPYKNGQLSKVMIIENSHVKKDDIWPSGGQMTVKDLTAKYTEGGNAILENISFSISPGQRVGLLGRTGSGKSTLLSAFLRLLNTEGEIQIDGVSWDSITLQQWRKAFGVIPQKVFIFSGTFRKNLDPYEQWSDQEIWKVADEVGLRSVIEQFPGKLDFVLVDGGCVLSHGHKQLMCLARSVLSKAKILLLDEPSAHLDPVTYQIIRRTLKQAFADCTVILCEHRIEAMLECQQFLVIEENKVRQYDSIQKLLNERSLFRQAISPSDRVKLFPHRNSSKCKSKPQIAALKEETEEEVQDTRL
- experiment description: Cell Surface Expression-Horse Radish Peroxidase (CSE-HRP) Assay
- Assay type: cell-based
- measurement conditions: test compound without co-corrector; read-out: EC50 (without co-corrector)
pEC50: −log10 of the molar value.
measured metric: pEC50

>>> recorded_measurement("CCc1cnc(N2CCCC2)c(C2(C(=O)NS(=O)(=O)c3cccc4ncccc34)CC2)c1")
"5.00 to 5.52"
>>> recorded_measurement("COc1ncc(C2(C(=O)NS(=O)(=O)c3cccc4ncccc34)CC2)c(OC)n1")
"< 5.00"
>>> recorded_measurement("Cc1cnc(N2CCOCC2)cc1C1(C(=O)NS(=O)(=O)c2cccc3ncccc23)CC1")
"< 5.00"
>>> recorded_measurement("CCc1ccc(OC(C)C)c(C2(C(=O)NS(=O)(=O)c3cccc4ncccc34)CC2)n1")
"5.00 to 5.52"
>>> recorded_measurement("O=C(NS(=O)(=O)c1cccc2ncccc12)C1(c2cc(Cl)cnc2F)CC1")
"< 5.00"
>>> recorded_measurement("O=C(NS(=O)(=O)c1cccc2ncccc12)C1(c2cc(Cl)cnc2C(F)(F)F)CC1")
"< 5.00"
>>> recorded_measurement("O=C(NS(=O)(=O)c1cccc2ncccc12)C1(c2cc(Cl)cnc2N2CCCC2)CC1")
"5.00 to 5.52"
>>> recorded_measurement("COCCOc1cnc(OC)cc1C1(C(=O)NS(=O)(=O)c2cccc3[nH]ccc23)CC1")
"5.00 to 5.52"
>>> recorded_measurement("CCc1cnc(OCC2CC2)c(C2(C(=O)NS(=O)(=O)c3cccc4nc(C)ccc34)CC2)c1")
"> 5.52"
>>> recorded_measurement("CCc1cnc(N2CCC(OC)CC2)c(C2(C(=O)NS(=O)(=O)c3cccc4ncccc34)CC2)c1")
"5.00 to 5.52"
>>> recorded_measurement("CC(C)Oc1ncc(C2CCC2)cc1C1(C(=O)NS(=O)(=O)c2cccc3c2CCCN3)CC1")
"5.00 to 5.52"
>>> recorded_measurement("CC(C)COc1ncc(N2CCCC2)cc1C1(C(=O)NS(=O)(=O)c2cccc3[nH]ccc23)CC1")
"> 5.52"
>>> recorded_measurement("COc1cnc(OCC2CC2)c(C2(C(=O)NS(=O)(=O)c3cccc4ncccc34)CC2)c1")
"5.00 to 5.52"
>>> recorded_measurement("COCC1CCN(c2ncc(C3CCC3)cc2C2(C(=O)NS(=O)(=O)c3cccc4[nH]ccc34)CC2)CC1")
"> 5.52"
>>> recorded_measurement("COc1cnc(OC(C)C)c(C2(C(=O)NS(=O)(=O)c3cccc4ncccc34)CC2)c1")
"5.00 to 5.52"
>>> recorded_measurement("COc1cnc(OCC(C)C)c(C2(C(=O)NS(=O)(=O)c3cccc4nc(C)ccc34)CC2)c1")
"> 5.52"

====

- study system: F508delCFTR (Homo sapiens, UniProt P13569, DEL508-508)
- Construct: expressed in transfected cells; host or cells: CFBE41o- human lung derived epithelial cells (CFBE41o-F508delCFTR-HRP), doxycycline-inducible
- experiment description: Cell Surface Expression-Horse Radish Peroxidase (CSE-HRP) Assay;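 as to EC50 (with co-corrector): co-corrector chromenyl benzoic acid corrector at 2 or 3 µM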
- Assay type: cell-based
- measurement conditions: with co-corrector; read-out: EC50 (with co-corrector)
measured metric: EC50

>>> recorded_measurement("O=C(NS(=O)(=O)c1ccc(Cl)cc1)C1(c2ccc(Cl)cc2Cl)CC1")
"3 to 10 µM"
>>> recorded_measurement("COc1ccc(C2CCC2)cc1C1(C(=O)NS(=O)(=O)c2cccc3ccn(C)c23)CC1")
"< 3 µM"
>>> recorded_measurement("Cc1ccc2c(S(=O)(=O)NC(=O)C3(c4cc(N(C)C)cnc4OCC(C)C)CC3)cccc2n1")
"< 3 µM"
>>> recorded_measurement("COc1ncc(C2CCC2)cc1C1(C(=O)NS(=O)(=O)c2cccc3ncc(C)n23)CC1")
"< 3 µM"
>>> recorded_measurement("COc1ccc(OC(C)C)cc1C1(C(=O)NS(=O)(=O)c2cccc3ncccc23)CC1")
"< 3 µM"
>>> recorded_measurement("COc1ncc(C(F)(F)F)cc1C1(C(=O)NS(=O)(=O)c2cccc3ccccc23)CC1")
"< 3 µM"
>>> recorded_measurement("CCCc1nc(C(F)(F)F)ccc1C1(C(=O)NS(=O)(=O)c2cccc3c2CCCN3)CC1")
"< 3 µM"
>>> recorded_measurement("CCOc1ccc(C(C)(C)OCC)cc1C1(C(=O)NS(=O)(=O)c2cccc3nc(C)ccc23)CC1")
"< 3 µM"
>>> recorded_measurement("COc1ccc(Br)cc1C1(C(=O)NS(=O)(=O)c2cccc3c2CCCN3)CCC1")
"< 3 µM"
>>> recorded_measurement("COc1ccc(C(C)C)cc1C1(C(=O)NS(=O)(=O)c2cccc3c2CCCN3)CC1")
"< 3 µM"
>>> recorded_measurement("COc1cccc(C)c1C1(C(=O)NS(=O)(=O)c2cccc3nc(C)ccc23)CC1")
"< 3 µM"
>>> recorded_measurement("CCCc1nc(C(F)(F)F)ccc1C1(C(=O)NS(=O)(=O)c2cccc3ncccc23)CC1")
"< 3 µM"
>>> recorded_measurement("O=C(NS(=O)(=O)c1cccc2ncccc12)C1(c2cc(C3CCC3)cnc2N2CCCC2)CC1")
"< 3 µM"
>>> recorded_measurement("COc1ncc(C(F)(F)F)cc1C1(C(=O)NS(=O)(=O)c2cccc3c2ccn3C)CC1")
"< 3 µM"
>>> recorded_measurement("O=C1Cc2cc(S(=O)(=O)NC(=O)C3(c4cccc(Cl)c4)CC3)ccc2N1")
"> 10 µM"
>>> recorded_measurement("O=C(NS(=O)(=O)c1ccc(Cl)cc1)C1(c2cccc(Cl)c2)CC1")
"> 10 µM"
>>> recorded_measurement("COC(C)(C)c1ccc(OC(F)F)c(C2(C(=O)NS(=O)(=O)c3cccc4ncccc34)CC2)c1")
"3 to 10 µM"
>>> recorded_measurement("COc1ccc(C2CCC2)cc1C1(C(=O)NS(=O)(=O)c2cccc3[nH]ncc23)CC1")
"< 3 µM"
>>> recorded_measurement("O=C(NS(=O)(=O)c1ccc(-n2cccn2)cc1)C1(c2cccc(Cl)c2)CC1")
"> 10 µM"
>>> recorded_measurement("COc1ccc(Br)cc1C1(C(=O)NS(=O)(=O)c2cccc3ccccc23)CC1")
"< 3 µM"
>>> recorded_measurement("COc1ncc(C(F)(F)F)cc1C1(C(=O)NS(=O)(=O)c2cccc3nc(C)ccc23)CC1")
"< 3 µM"
>>> recorded_measurement("COc1cc(C2(C(=O)NS(=O)(=O)c3cccc4nc(N)ccc34)CC2)c(OCC(C)C)cn1")
"< 3 µM"
>>> recorded_measurement("COc1ncc(C2CCC2)c(C)c1C1(C(=O)NS(=O)(=O)c2cccc3ccn(C)c23)CC1")
"< 3 µM"
>>> recorded_measurement("COc1ncc(C2CCC2)cc1C1(C(=O)NS(=O)(=O)c2cccc3[nH]ccc23)CC1")
"< 3 µM"
>>> recorded_measurement("Cc1ccc(O[C@H]2CCOC2)c(C2(C(=O)NS(=O)(=O)c3cccc4ncccc34)CC2)c1")
"< 3 µM"
>>> recorded_measurement("COc1ccc(C2CCC2)cc1C1(C(=O)NS(=O)(=O)c2cccc3ccc(C)nc23)CC1")
"< 3 µM"
>>> recorded_measurement("COc1ccc(C2CC2)c(C)c1C1(C(=O)NS(=O)(=O)c2cccc3c2CCCN3)CC1")
"< 3 µM"
>>> recorded_measurement("COc1ccc(C)c(C)c1C1(C(=O)NS(=O)(=O)c2cccc3nc(C)ccc23)CC1")
"< 3 µM"
>>> recorded_measurement("COc1ccc2c(S(=O)(=O)NC(=O)C3(c4cc(C5CC5)cnc4OCC(C)C)CC3)cccc2n1")
"< 3 µM"
>>> recorded_measurement("COc1cc(C2(C(=O)NS(=O)(=O)c3cccc4ccccc34)CC2)ccc1C")
"3 to 10 µM"
>>> recorded_measurement("COc1ccc(C)nc1C1(C(=O)NS(=O)(=O)c2cccc3ncccc23)CC1")
"3 to 10 µM"
>>> recorded_measurement("COCC1(c2ccc(OC)c(C3(C(=O)NS(=O)(=O)c4cccc5ncccc45)CC3)c2)CC1")
"< 3 µM"
>>> recorded_measurement("O=C(NS(=O)(=O)C1CCS(=O)(=O)C1)C1(c2ccc(Cl)cc2Cl)CC1 (stereo not drawn)")
"> 10 µM"

====

- study system: F508delCFTR (Homo sapiens, UniProt P13569, DEL508-508)
- Construct: expressed in transfected cells; host or cells: CFBE41o- human lung derived epithelial cells (CFBE41o-F508delCFTR-HRP), doxycycline-inducible
- experiment description: Cell Surface Expression-Horse Radish Peroxidase (CSE-HRP) Assay;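 as to EC50 (with co-corrector): co-corrector chromenyl benzoic acid corrector at 2 or 3 µM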
- Type: cell-based
- measurement conditions: test compound with co-corrector; read-out: EC50 (with co-corrector)
pEC50: −log10 of the molar value.
Measured pEC50, listed per entry for reference.
measured metric: pEC50

>>> recorded_measurement("CC(C)OC1CCN(c2ncc(C3CCC3)cc2C2(C(=O)NS(=O)(=O)c3cccc4ncccc34)CC2)CC1 [Example GI-105]")
"> 5.52"
>>> recorded_measurement("Cc1ccc2c(S(=O)(=O)NC(=O)C3(c4cc(C5CCC5)cnc4N4CCC(OC(C)C)CC4)CC3)cccc2n1 [Example GI-113]")
"> 5.52"
>>> recorded_measurement("COc1cc(C2(C(=O)NS(=O)(=O)c3cccc4[nH]ccc34)CC2)c(OCC2CC2)cn1 [Example GI-95]")
"> 5.52"
>>> recorded_measurement("O=C(NS(=O)(=O)c1cccc2ncccc12)C1(c2cc(C3CCC3)cnc2N2CCOCC2)CC1 [GII-28]")
"5.00 to 5.52"
>>> recorded_measurement("CCOc1ncc(C2CCC2)cc1C1(C(=O)NS(=O)(=O)c2cccc3nc(C)ccc23)CC1 [Example GI-115]")
"> 5.52"
>>> recorded_measurement("CC(C)Oc1ncccc1C1(C(=O)NS(=O)(=O)c2cccc3ccccc23)CC1 [GII-2]")
"5.00 to 5.52"
>>> recorded_measurement("CCc1cnc(OCC2CC2)c(C2(C(=O)NS(=O)(=O)c3cccc4nc(C)ccc34)CC2)c1 [Example GI-107]")
"> 5.52"
>>> recorded_measurement("COc1nc(C(F)(F)F)ccc1C1(C(=O)NS(=O)(=O)c2cccc3ncccc23)CC1 [GII-10]")
"5.00 to 5.52"
>>> recorded_measurement("CCc1cnc(N2CCC(COC)CC2)c(C2(C(=O)NS(=O)(=O)c3cccc4ncccc34)CC2)c1 [GII-59]")
"5.00 to 5.52"
>>> recorded_measurement("COc1cc(C)c(C2(C(=O)NS(=O)(=O)c3cccc4ccccc34)CC2)cn1 [GII-22]")
"5.00 to 5.52"
>>> recorded_measurement("Cc1cnc(OC(C)C)c(C2(C(=O)NS(=O)(=O)c3cccc4[nH]ccc34)CC2)c1 [Example GI-59]")
"> 5.52"
>>> recorded_measurement("COc1cc(C2(C(=O)NS(=O)(=O)c3cccc4c3CCCN4)CC2)c(Cl)cn1 [GII-7]")
"5.00 to 5.52"
>>> recorded_measurement("CCc1cnc(N(C)C)c(C2(C(=O)NS(=O)(=O)c3cccc4nc(C)ccc34)CC2)c1 [GII-48]")
"5.00 to 5.52"
>>> recorded_measurement("CCc1cnc(N2CCOCC2)c(C2(C(=O)NS(=O)(=O)c3cccc4ncccc34)CC2)c1 [GIII-23]")
"< 5.00"
>>> recorded_measurement("CC(C)Oc1cnc(OC(C)C)c(C2(C(=O)NS(=O)(=O)c3cccc4[nH]ccc34)CC2)c1 [Example GI-66]")
"> 5.52"
>>> recorded_measurement("CCc1cnc(OCCOC)c(C2(C(=O)NS(=O)(=O)c3cccc4nc(C)ccc34)CC2)c1 [GII-56]")
"5.00 to 5.52"
>>> recorded_measurement("O=C(NS(=O)(=O)c1cccc2ncccc12)C1(c2ccc(C(F)(F)F)nc2Cl)CC1 [GIII-29]")
"< 5.00"
>>> recorded_measurement("O=C(NS(=O)(=O)c1cccc2ncccc12)C1(c2cc(C3CCC3)cnc2OCC2CC2)CC1 [Example GI-100]")
"> 5.52"
>>> recorded_measurement("COc1cnc(OCC(C)C)c(C2(C(=O)NS(=O)(=O)c3cccc4[nH]ccc34)CC2)c1 [Example GI-78]")
"> 5.52"
>>> recorded_measurement("COCCOc1ncc(OC)cc1C1(C(=O)NS(=O)(=O)c2cccc3nc(C)ccc23)CC1 [GII-42]")
"5.00 to 5.52"
>>> recorded_measurement("CC(C)Oc1ccc(C2(C(=O)NS(=O)(=O)c3cccc4ncccc34)CC2)c(N(C)C)n1 [GII-51]")
"5.00 to 5.52"
>>> recorded_measurement("Cc1ccc2c(S(=O)(=O)NC(=O)C3(c4cc(C5CC5)cnc4OCC(C)C)CC3)cccc2n1 [Example GI-49]")
"> 5.52"
>>> recorded_measurement("CCc1cnc(N2CCCC2)c(C2(C(=O)NS(=O)(=O)c3cccc4c3CCCN4)CC2)c1 [GII-35]")
"5.00 to 5.52"
>>> recorded_measurement("COc1cc(C2(C(=O)NS(=O)(=O)c3cccc4nc(C)ccc34)CC2)c(OCC(F)F)cn1 [GIII-14]")
"5.00 to 5.52"
>>> recorded_measurement("Cc1cnc(N2CCCC2)c(C2(C(=O)NS(=O)(=O)c3cccc4ncccc34)CC2)c1 [GII-38]")
"5.00 to 5.52"
>>> recorded_measurement("CN1CCN(c2ncc(C3CC3)cc2C2(C(=O)NS(=O)(=O)c3cccc4[nH]ccc34)CC2)CC1 [GIII-36]")
"< 5.00"
>>> recorded_measurement("CC(C)COc1ncc(N2CCCC2)cc1C1(C(=O)NS(=O)(=O)c2cccc3ncccc23)CC1 [Example GI-68]")
"> 5.52"
>>> recorded_measurement("CC(C)Oc1ncc(N2CCCC2)cc1C1(C(=O)NS(=O)(=O)c2cccc3[nH]ccc23)CC1 [Example GI-64]")
"> 5.52"
>>> recorded_measurement("CCc1cnc(N2CCCC2)c(C2(C(=O)NS(=O)(=O)c3cccc4nc(C)ccc34)CC2)c1 [GII-31]")
"5.00 to 5.52"
>>> recorded_measurement("COCCOc1ncc(OC)cc1C1(C(=O)NS(=O)(=O)c2cccc3[nH]ccc23)CC1 [GII-43]")
"5.00 to 5.52"
>>> recorded_measurement("COc1cc(C2(C(=O)NS(=O)(=O)c3cccc4ncccc34)CC2)c(OCC2CC2)cn1 [Example GI-91]")
"> 5.52"
>>> recorded_measurement("CCc1ncc(OC(C)C)cc1C1(C(=O)NS(=O)(=O)c2cccc3ncccc23)CC1 [GII-16]")
"5.00 to 5.52"
